Recorded values, source patent US20190218214A1.

Assay: In vivo dose escalation, rat (oral)
Details: Dose 100 mg/Kg
Would you kindly list AUC(0-t) for each of these molecules?
Give bare numbers, in ng·h/mL.

For each of the molecules below, state AUC(0-t).
1. Cc1cc(-c2cnc3cc(-c4ccc(N5CCNCC5)cc4)ccn23)c2ccccc2n1 [Compound 25]
2. Cc1cc(-c2cnc3cc(-c4ccc(N5CCNCC5)cc4)ccn23)c2cc(F)cc(F)c2n1 [Compound 17]
3. Cc1cc(-c2cnc3cc(-c4ccc(N5CCNCC5)cc4)ccn23)c2cc(F)ccc2n1 [Compound 20]

Completion:
38600
33700
58400

----------
Biological target: hERG (Homo sapiens, UniProt Q12809)
Construct: expressed in transfected cells
Sequence (Q12809 whole entry): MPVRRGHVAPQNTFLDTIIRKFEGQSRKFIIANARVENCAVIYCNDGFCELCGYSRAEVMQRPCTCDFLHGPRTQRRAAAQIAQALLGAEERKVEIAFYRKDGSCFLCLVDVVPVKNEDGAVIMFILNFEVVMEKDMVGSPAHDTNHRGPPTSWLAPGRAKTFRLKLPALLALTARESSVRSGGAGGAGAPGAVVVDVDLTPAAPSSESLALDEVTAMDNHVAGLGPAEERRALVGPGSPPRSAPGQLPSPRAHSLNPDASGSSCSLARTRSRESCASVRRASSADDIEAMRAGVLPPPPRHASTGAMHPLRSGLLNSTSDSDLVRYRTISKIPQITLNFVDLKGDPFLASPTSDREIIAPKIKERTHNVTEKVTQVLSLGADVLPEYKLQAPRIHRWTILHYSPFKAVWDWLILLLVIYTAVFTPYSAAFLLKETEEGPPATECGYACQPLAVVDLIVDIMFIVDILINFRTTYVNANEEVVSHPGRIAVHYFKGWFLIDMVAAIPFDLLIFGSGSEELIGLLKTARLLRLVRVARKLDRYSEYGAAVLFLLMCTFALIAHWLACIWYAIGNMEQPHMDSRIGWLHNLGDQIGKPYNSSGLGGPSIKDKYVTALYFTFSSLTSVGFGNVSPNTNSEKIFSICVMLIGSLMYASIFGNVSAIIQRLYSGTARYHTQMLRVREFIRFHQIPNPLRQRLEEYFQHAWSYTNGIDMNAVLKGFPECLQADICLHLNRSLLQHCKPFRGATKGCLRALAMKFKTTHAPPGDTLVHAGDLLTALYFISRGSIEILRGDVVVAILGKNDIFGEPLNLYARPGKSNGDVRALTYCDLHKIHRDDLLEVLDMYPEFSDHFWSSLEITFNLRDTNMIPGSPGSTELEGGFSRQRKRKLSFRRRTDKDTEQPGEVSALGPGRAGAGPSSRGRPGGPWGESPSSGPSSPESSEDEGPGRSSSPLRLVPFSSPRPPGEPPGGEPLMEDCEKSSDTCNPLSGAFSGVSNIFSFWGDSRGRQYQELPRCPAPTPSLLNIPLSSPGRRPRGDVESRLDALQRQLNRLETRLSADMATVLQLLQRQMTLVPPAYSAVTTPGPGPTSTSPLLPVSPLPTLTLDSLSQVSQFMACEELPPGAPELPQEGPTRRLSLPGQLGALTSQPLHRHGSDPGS
Assay: Cardiac profiler panel, hERG (IonWorks Quattro)
Type: cell-based
Conditions: cell line expressing hERG (host cell not named), pH 7.3
Metric: inhibition at 300 s, 10 µM

Note to self: inhibition at 300 s, 10 µM recorded for Cc1cc(-c2cnc3cc(-c4ccc(N5CCNCC5)cc4)ccn23)c2cc(F)cc(F)c2n1 [Compound 17] was 14.6%

----------
Protein target, amino acids: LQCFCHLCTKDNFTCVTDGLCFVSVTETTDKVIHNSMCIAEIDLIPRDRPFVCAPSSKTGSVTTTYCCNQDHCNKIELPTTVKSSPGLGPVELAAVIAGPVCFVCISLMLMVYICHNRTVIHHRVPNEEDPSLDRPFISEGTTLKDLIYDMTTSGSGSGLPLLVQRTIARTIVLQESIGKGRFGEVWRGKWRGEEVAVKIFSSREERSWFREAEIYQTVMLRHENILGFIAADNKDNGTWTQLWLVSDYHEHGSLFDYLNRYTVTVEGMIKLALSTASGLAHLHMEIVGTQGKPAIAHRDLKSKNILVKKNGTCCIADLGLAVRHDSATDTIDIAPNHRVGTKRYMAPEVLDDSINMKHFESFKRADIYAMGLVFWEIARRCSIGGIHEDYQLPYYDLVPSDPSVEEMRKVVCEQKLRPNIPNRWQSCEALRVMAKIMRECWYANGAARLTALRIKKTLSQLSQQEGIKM
Metric: pKi
One number for each entry, as −log10 of the molar value.

Note to self: pKi recorded for COc1ccc2nc(C)cc(-c3cnc4cc(-c5ccc(N6CCN(C(C)=O)CC6)cc5)ccn34)c2c1 was 6.50

----------
Experiment: in vitro
Settings: human, microsomes
Metric: half-life (h)
Give bare numbers, in h.

Consider the worked cases shown below.
[
  {
    "Compound": "Cc1cc(-c2cnc3cc(-c4ccc(N5CCNCC5)cc4)ccn23)c2cc(F)cc(F)c2n1",
    "half-life, h": 1.33
  },
  {
    "Compound": "Cc1cc(-c2cnc3cc(-c4ccc(N5CCNCC5)cc4)ccn23)c2ccccc2n1",
    "half-life, h": 0.967
  }
]

Proceeding to the next compound to report its half-life.
Note to self: half-life recorded for Cc1cc(-c2cnc3cc(-c4ccc(N5CCNCC5)cc4)ccn23)c2cc(F)ccc2n1 was 1.43

----------
Test: In vivo dose escalation, rat (oral)
Conditions: Dose 100 mg/Kg
Metric: bioavailability (%)
One number for each entry, in %.

[
  {
    "Compound": "Cc1cc(-c2cnc3cc(-c4ccc(N5CCNCC5)cc4)ccn23)c2cc(F)cc(F)c2n1 [Compound 17]",
    "Unit Abbrev": "%",
    "Reported Result": 51.2
  }
]

Note to self: bioavailability recorded for Cc1cc(-c2cnc3cc(-c4ccc(N5CCNCC5)cc4)ccn23)c2cc(F)ccc2n1 [Compound 20] was 52
